List of k on tested on Neutrophil elastase (Homo sapiens) (UniProt P08246).
Sequence (P08246 whole entry): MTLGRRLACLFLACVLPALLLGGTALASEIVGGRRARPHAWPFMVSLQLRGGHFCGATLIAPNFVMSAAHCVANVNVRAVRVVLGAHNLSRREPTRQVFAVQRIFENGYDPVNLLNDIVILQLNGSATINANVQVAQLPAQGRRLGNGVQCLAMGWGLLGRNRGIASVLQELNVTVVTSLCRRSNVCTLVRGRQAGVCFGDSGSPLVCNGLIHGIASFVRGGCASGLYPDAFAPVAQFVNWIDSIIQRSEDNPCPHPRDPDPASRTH
Readout Label: k on

[[record]]
smiles_string = "CC(C)[C@@H]1C(=O)N(S(C)(=O)=O)[C@@H]2CCN(C(=O)c3cnc(CNC4CC4)cn3)[C@H]21.Cl"
obs_value = "252000 M⁻¹ s⁻¹"

[[record]]
smiles_string = "CC(C)[C@@H]1C(=O)N(S(C)(=O)=O)[C@@H]2CCN(C(=O)/C=C/CN3CCCCC3)[C@H]21.Cl"
obs_value = "6630 M⁻¹ s⁻¹"

[[record]]
smiles_string = "CC(C)[C@@H]1C(=O)N(S(C)(=O)=O)[C@@H]2CCN(C(=O)C3CN(CC(C)(C)C)C3)[C@H]21.Cl"
obs_value = "6310 M⁻¹ s⁻¹"

[[record]]
smiles_string = "CC(C)[C@@H]1C(=O)N(S(C)(=O)=O)[C@@H]2CCN(C(=O)c3coc(CN4CCCC4)n3)[C@H]21.Cl"
obs_value = "30500 M⁻¹ s⁻¹"


###

Tested on: Rattus norvegicus
Method Notes: pharmacokinetic parameter area under the curve (AUC) was reported in rat after oral administration
Assay type: ADME, organism-based
Condition Details: in vivo
Readout Label: AUC

[[record]]
smiles_string = "CC(C)[C@@H]1C(=O)N(S(C)(=O)=O)[C@@H]2CCN(C(=O)c3coc(CN4CCCC4)n3)[C@H]21.Cl"
obs_value = "93 ng·h/mL"

[[record]]
smiles_string = "CC(C)[C@@H]1C(=O)N(S(C)(=O)=O)[C@@H]2CCN(C(=O)c3cnc(CNC4CC4)cn3)[C@H]21.Cl"
obs_value = "64 ng·h/mL"

[[record]]
smiles_string = "CC(C)[C@@H]1C(=O)N(S(C)(=O)=O)[C@@H]2CCN(C(=O)C3CN(CC(C)(C)C)C3)[C@H]21.Cl"
obs_value = "217 ng·h/mL"

[[record]]
smiles_string = "CC(C)[C@@H]1C(=O)N(S(C)(=O)=O)[C@@H]2CCN(C(=O)/C=C/CN3CCCCC3)[C@H]21.Cl"
obs_value = "263 ng·h/mL"


###

# Vd per record follows
Method Notes: Pharmacokinetic parameter Varea in dog was reported in Discrete dosage
Assay type: ADME, organism-based, Canis lupus familiaris
Condition Details: in vivo, read-out: Varea
Readout Label: Vd (L/kg)

[[record]]
compound = "CCCN(C)Cc1ccc(C(=O)N2CCC3C2C(C(C)C)C(=O)N3S(C)(=O)=O)cc1 (stereo not given)"
readout_label = "Vd"
obs_value = 3.5

[[record]]
compound = "CC(C)C1C(=O)N(S(C)(=O)=O)C2CCN(C(=O)c3ccc(CNC4CC4)cc3)C12 (stereo not given)"
readout_label = "Vd"
obs_value = 3.8

[[record]]
compound = "CC(C)C1C(=O)N(S(C)(=O)=O)C2CCN(C(=O)/C=C/CN3CCCCC3)C12 (stereo not given)"
readout_label = "Vd"
obs_value = 2.7

[[record]]
compound = "CC(C)[C@@H]1C(=O)N(S(C)(=O)=O)[C@@H]2CCN(C(=O)c3ccc(CCN4CCCCC4)cc3)[C@H]21"
readout_label = "Vd"
obs_value = 3.8

[[record]]
compound = "CC(C)[C@@H]1C(=O)N(S(C)(=O)=O)[C@@H]2CCN(C(=O)/C=C/CNC3CC3)[C@H]21"
readout_label = "Vd"
obs_value = 2.9


###

A collection of compounds and their measured clearance
Method Notes: Pharmacokinetic parameter clearance in dog was reported in Cassette dosage
Type: ADME, organism-based, Canis lupus familiaris
Condition Details: plasma, read-out: Clp
Readout Label: clearance (L/h/kg)

[[record]]
compound = "CC(C)[C@@H]1C(=O)N(S(C)(=O)=O)[C@@H]2CCN(C(=O)c3ccc(CN(C)C(C)C)c(Br)c3)[C@H]21"
obs_value = 10.6

[[record]]
compound = "CC(C)C1C(=O)N(S(C)(=O)=O)C2CCN(C(=O)c3csc(CN4CCCC4)n3)C12 (stereo not drawn)"
obs_value = 3.18

[[record]]
compound = "CCCN(C)Cc1ccc(C(=O)N2CCC3C2C(C(C)C)C(=O)N3S(C)(=O)=O)cc1 (stereo not drawn)"
obs_value = 8.04

[[record]]
compound = "CC(C)C1C(=O)N(S(C)(=O)=O)C2CCN(C(=O)/C=C/CN3CCCCC3)C12 (stereo not drawn)"
obs_value = 1.2

[[record]]
compound = "CC(C)C1C(=O)N(S(C)(=O)=O)C2CCN(C(=O)c3ccc(CNC4CC4)nc3)C12 (stereo not drawn)"
obs_value = 2.76

[[record]]
compound = "CC(C)[C@@H]1C(=O)N(S(C)(=O)=O)[C@@H]2CCN(C(=O)c3ccc(CCN4CCCCC4)cc3)[C@H]21"
obs_value = 9.66

[[record]]
compound = "CC(C)C1C(=O)N(S(C)(=O)=O)C2CCN(C(=O)c3ccc(CNC4CC4)cc3)C12 (stereo not drawn)"
obs_value = 5.82

[[record]]
compound = "CC(C)[C@@H]1C(=O)N(S(C)(=O)=O)[C@@H]2CCN(C(=O)/C=C/CNC3CC3)[C@H]21"
obs_value = 1.68


###

Method Notes: Oral bioavailability in dog
Format: ADME, organism-based, Canis lupus familiaris
Condition Details: in vivo
bioavailability for assorted molecules
Readout Label: bioavailability (%)

[[record]]
smiles_string = "CC(C)[C@@H]1C(=O)N(S(C)(=O)=O)[C@@H]2CCN(C(=O)C3CN(CC(C)(C)C)C3)[C@H]21.Cl"
obs_value = 90

[[record]]
smiles_string = "CC(C)[C@@H]1C(=O)N(S(C)(=O)=O)[C@@H]2CCN(C(=O)c3cnc(CNC4CC4)cn3)[C@H]21.Cl"
obs_value = 120

[[record]]
smiles_string = "CC(C)[C@@H]1C(=O)N(S(C)(=O)=O)[C@@H]2CCN(C(=O)c3coc(CN4CCCC4)n3)[C@H]21.Cl"
obs_value = 100

[[record]]
smiles_string = "CC(C)[C@@H]1C(=O)N(S(C)(=O)=O)[C@@H]2CCN(C(=O)/C=C/CN3CCCCC3)[C@H]21.Cl"
obs_value = 100


###

Listed compounds paired with reported Tmax
Method Notes: Pharmacokinetic parameter Tmax was reported in dog after oral administration
Type: ADME, organism-based, Canis lupus familiaris
Condition Details: in vivo
Readout Label: Tmax (min)

[[record]]
smiles_string = "CC(C)[C@@H]1C(=O)N(S(C)(=O)=O)[C@@H]2CCN(C(=O)/C=C/CN3CCCCC3)[C@H]21.Cl"
result_units = "min"
obs_value = 42

[[record]]
smiles_string = "CC(C)[C@@H]1C(=O)N(S(C)(=O)=O)[C@@H]2CCN(C(=O)C3CN(CC(C)(C)C)C3)[C@H]21.Cl"
result_units = "min"
obs_value = 54

[[record]]
smiles_string = "CC(C)[C@@H]1C(=O)N(S(C)(=O)=O)[C@@H]2CCN(C(=O)c3coc(CN4CCCC4)n3)[C@H]21.Cl"
result_units = "min"
obs_value = 30

[[record]]
smiles_string = "CC(C)[C@@H]1C(=O)N(S(C)(=O)=O)[C@@H]2CCN(C(=O)c3cnc(CNC4CC4)cn3)[C@H]21.Cl"
result_units = "min"
obs_value = 15


###

Method Notes: pharmacokinetic parameter volume of distribution (Vd) was reported in dog after intravenous administration
Type: ADME, organism-based, Canis lupus familiaris
Condition Details: in vivo, read-out: Vd area
Reported Vd values follow for various compounds
Readout Label: Vd (L/kg)

[[record]]
smiles_string = "CC(C)[C@@H]1C(=O)N(S(C)(=O)=O)[C@@H]2CCN(C(=O)c3cnc(CNC4CC4)cn3)[C@H]21.Cl"
obs_value = 1.9

[[record]]
smiles_string = "CC(C)[C@@H]1C(=O)N(S(C)(=O)=O)[C@@H]2CCN(C(=O)/C=C/CN3CCCCC3)[C@H]21.Cl"
obs_value = 3.5

[[record]]
smiles_string = "CC(C)[C@@H]1C(=O)N(S(C)(=O)=O)[C@@H]2CCN(C(=O)C3CN(CC(C)(C)C)C3)[C@H]21.Cl"
obs_value = 3.5

[[record]]
smiles_string = "CC(C)[C@@H]1C(=O)N(S(C)(=O)=O)[C@@H]2CCN(C(=O)c3coc(CN4CCCC4)n3)[C@H]21.Cl"
obs_value = 3.4


###

A set of molecules tested on Serine protease 1 (Homo sapiens, UniProt P07477), with measured IC50:
Readout Label: IC50

[[record]]
smiles_string = "CC(C)[C@@H]1C(=O)N(S(C)(=O)=O)[C@@H]2CCN(C(=O)c3coc(CN4CCCC4)n3)[C@H]21.Cl"
obs_value = "> 100 µM"

[[record]]
smiles_string = "CC(C)[C@@H]1C(=O)N(S(C)(=O)=O)[C@@H]2CCN(C(=O)c3cnc(CNC4CC4)cn3)[C@H]21.Cl"
obs_value = "> 100 µM"


###

Method Notes: Pharmacokinetic parameter Cmax was reported after in dog oral administration
Format: ADME, organism-based, Canis lupus familiaris
Design: route oral
Condition Details: in vivo
Readout Label: Cmax (ng/mL)

[[record]]
smiles_string = "CC(C)[C@@H]1C(=O)N(S(C)(=O)=O)[C@@H]2CCN(C(=O)c3cnc(CNC4CC4)cn3)[C@H]21.Cl"
readout_label = "Cmax"
obs_value = 205

[[record]]
smiles_string = "CC(C)[C@@H]1C(=O)N(S(C)(=O)=O)[C@@H]2CCN(C(=O)/C=C/CN3CCCCC3)[C@H]21.Cl"
readout_label = "Cmax"
obs_value = 152

[[record]]
smiles_string = "CC(C)[C@@H]1C(=O)N(S(C)(=O)=O)[C@@H]2CCN(C(=O)C3CN(CC(C)(C)C)C3)[C@H]21.Cl"
readout_label = "Cmax"
obs_value = 130

[[record]]
smiles_string = "CC(C)[C@@H]1C(=O)N(S(C)(=O)=O)[C@@H]2CCN(C(=O)c3coc(CN4CCCC4)n3)[C@H]21.Cl"
readout_label = "Cmax"
obs_value = 138

